Target: PE-labeled human PD-L1-Ig binding to Jurkat cell line over-expressing human PD-1 (Jurkat-PD-1) (Homo sapiens, UniProt Q15116)
Construct: expressed in transfected cells; host or cells: Jurkat
Sequence (Q15116 25-288): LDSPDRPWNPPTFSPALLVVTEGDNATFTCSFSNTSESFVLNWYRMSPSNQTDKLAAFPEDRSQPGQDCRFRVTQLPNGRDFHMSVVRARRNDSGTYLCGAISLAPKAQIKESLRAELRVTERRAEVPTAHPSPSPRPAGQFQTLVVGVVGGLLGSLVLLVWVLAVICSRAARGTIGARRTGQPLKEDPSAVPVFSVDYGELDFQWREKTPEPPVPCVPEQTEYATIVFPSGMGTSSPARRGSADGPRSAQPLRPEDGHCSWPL
Experiment: Jurkat-PD-1 Cell Binding High-Content Screening Assay (CBA): Method 1
Details: Jurkat-hPD-1 cells, PE-labeled PD-L1-Ig 20 nM final; read-out: Jurkat HPDL1 PD1 IC50 (uM) (Method 1)
Bridge positions count the residues as written; N and C are the ends. Square brackets hold non-standard residues; d marks the D form. Peptide text beside a SMILES is read from it. Bip = N[C@@H](Cc1ccc(-c2ccccc2)cc1)C(=O)O; NMeA = CN[C@@H](C)C(=O)O; Dab = NCC[C@H](N)C(=O)O
PROPERTY_NAME: IC50 (µM)
Numbers only; they are read as µM.

q: Please look up its IC50: CC(C)C[C@@H]1NC(=O)[C@H](CCN)NC(=O)[C@@H](CC(C)C)NC(=O)[C@H](C)N(C)C(=O)[C@H](CCC(=O)O)NC(=O)[C@H](Cc2ccc(-c3ccccc3)cc2)NC(=O)[C@H](C(C)C)NC(=O)[C@H](Cc2c[nH]c3ccccc23)NC(=O)[C@H](CC(=O)O)NC(=O)[C@H](Cc2ccc(O)cc2)NC(=O)[C@H](Cc2ccccc2)NC(=O)CSC[C@@H](C(=O)N[C@@H](C)C(N)=O)NC(=O)[C@H]([C@@H](C)O)NC(=O)[C@H](C(C)C)NC1=O [Compound 1134] ({CH2CO}-FYDWV[Bip]E[NMeA][dL][Dab]LVTCA-NH2; thioether N-14)
a: 0.11

q: # get_value(readout='IC50', item= CC(C)C[C@@H]1NC(=O)[C@H](CCN)NC(=O)[C@@H](CC(C)C)NC(=O)[C@H](C)N(C)C(=O)[C@H](CCCNC(=N)N)NC(=O)[C@H](Cc2ccc(-c3ccccc3)cc2)NC(=O)[C@H](C(C)C)NC(=O)[C@H](Cc2c[nH]c3ccccc23)NC(=O)[C@H](CC(=O)O)NC(=O)[C@H](Cc2ccc(O)cc2)NC(=O)[C@H](CCN)NC(=O)CSC[C@@H](C(=O)N[C@@H](C)C(N)=O)NC(=O)[C@H]([C@@H](C)O)NC(=O)[C@H](C(C)C)NC1=O [Compound 1340] ({CH2CO}-[Dab]YDWV[Bip]R[NMeA][dL][Dab]LVTCA-NH2; thioether N-14) )
a: 0.02
